- Experiment Description: Gravimetric Vapour Sorption (GVS) with post-GVS XRPD
- Type: physicochemical
Metric: XRPD post DVS

[[record]]
compound = "CC(=O)N[C@H]1[C@H]([C@H](O)[C@H](O)CO)OC(O)(C(=O)O)C[C@@H]1O (stereo partly shown) [Form 5, N-acetylneuraminic acid]"
metric = "XRPD post DVS"
observed = "no change"

[[record]]
compound = "CC(=O)N[C@H]1[C@H]([C@H](O)[C@H](O)CO)OC(O)(C(=O)O)C[C@@H]1O (stereo partly shown) [Form 1, N-acetylneuraminic acid]"
metric = "XRPD post DVS"
observed = "no change"

[[record]]
compound = "CC(=O)N[C@H]1[C@H]([C@H](O)[C@H](O)CO)OC(O)(C(=O)O)C[C@@H]1O (stereo partly shown) [Form 3, N-acetylneuraminic acid]"
metric = "XRPD post DVS"
observed = "change"

[[record]]
compound = "CC(=O)N[C@H]1[C@H]([C@H](O)[C@H](O)CO)OC(O)(C(=O)O)C[C@@H]1O (stereo partly shown) [Form 2, N-acetylneuraminic acid]"
metric = "XRPD post DVS"
observed = "change"

